- target.of.assay: Synthetic beta-amyloid peptide 1-40 (Homo sapiens, UniProt P05067)
- Sequence (P05067 672-711): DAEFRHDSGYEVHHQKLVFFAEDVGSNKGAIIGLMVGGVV
- experiment: Seprion assay screen for compounds that affect amyloid aggregation
- Format: biochemical
- experimental.setup: test compounds at 1 mM; peptide 2.8 μg/ml, 30 min at 37° C.; Seprion assay signal
Reported Relative aggregation compared to 'no compound' aggregation control values for a set of molecules
Could you give me the number in %? Just the number is fine.

Record excerpt, results attached:
CN(C)CCCN1c2ccccc2Sc2ccccc21.Cl [Promazine, promazine]; 44.5
OCCN1CCN(CCC=C2c3ccccc3Sc3ccc(C(F)(F)F)cc32)CC1 [Flupenthixol, cis-(Z)-flupenthixol]; 48.2
CN1CCN(CC/C=C2/c3ccccc3Sc3ccc(S(=O)(=O)N(C)C)cc32)CC1 [Cis-thiothixene, cis-thiothixene]; 42
c1ccc2c(c1)Nc1ccccc1S2 [Phenothiazine]; 80
Clc1ccc2c(c1)C(N1CCNCC1)=Nc1ccccc1O2 [Amoxapine, amoxapine]; 119

Proceed to the following item.
Ask: Look up Relative aggregation compared to 'no compound' aggregation control for this molecule: CC(CN(C)C)CN1c2ccccc2CCc2ccccc21 (stereo not drawn) [Trimipramine, trimipramine]
Result: 259
